Target sequence: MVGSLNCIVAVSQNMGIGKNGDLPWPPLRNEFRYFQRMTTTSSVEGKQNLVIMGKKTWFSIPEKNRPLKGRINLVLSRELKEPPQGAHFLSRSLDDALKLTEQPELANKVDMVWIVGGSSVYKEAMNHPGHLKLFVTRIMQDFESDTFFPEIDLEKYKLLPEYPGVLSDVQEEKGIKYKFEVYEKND
Measured quantity: pIC50
// scale note: pIC50 = -log10(conc_M); give the bare number

Exercise: Read off the recorded pIC50 for N#CCC(=O)NNC(=S)NC(=O)Cc1ccccc1
Solution: 3.72

###

Tested system: UniProt:P20083
Measured quantity: pIC50
// scale note: pIC50 = -log10(conc_M); give the bare number

Exercise: Fetch value of pIC50 on UniProt:P20083 for N#CCC(=O)NNC(=S)NC(=O)Cc1ccccc1 .
Solution: 4.71

###

System: Bacillus subtilis ATCC 6633
Assay procedure: Agar well diffusion, inhibition zone
Assay type: cell-based
Parameters: dose or concentration left out as unconfirmed
Measurement conditions: ATCC6633, B. subtilis ATCC 6633, NA = No Activity, read-out: Mean Diameter of Inhibition Zone (Mean ± SEM)
Below, each entry is listed alongside its reported zone of inhibition.
# number only, unit mm dropped from output

[[record]]
compound = "N=c1oc2ccccc2cc1-c1nnc(NC(=O)Cc2ccccc2)s1"
tested_system = "Bacillus subtilis ATCC 6633"
endpoint_value = 6

[[record]]
compound = "O=C(Cc1ccccc1)Nc1nnc(C(=Cc2cccs2)NC(=O)c2ccccc2)s1"
tested_system = "Bacillus subtilis ATCC 6633"
endpoint_value = 24


Exercise: Fetch value of zone of inhibition on Bacillus subtilis ATCC 6633 for O=C(Cc1ccccc1)NC(=S)N1NC(=O)C(=Cc2ccccc2)N=C1c1ccccc1 .
Solution: 23

Exercise: Fetch value of zone of inhibition on Bacillus subtilis ATCC 6633 for O=C(Cc1ccccc1)NC(=S)NNC(=O)C(=Cc1ccccc1)NC(=O)c1ccccc1 .
Solution: 33

Exercise: Fetch value of zone of inhibition on Bacillus subtilis ATCC 6633 for N#CCC(=O)NNC(=S)NC(=O)Cc1ccccc1 .
Solution: 42

Exercise: Fetch value of zone of inhibition on Bacillus subtilis ATCC 6633 for N#CCc1nnc(NC(=O)Cc2ccccc2)s1 .
Solution: 12

Exercise: Fetch value of zone of inhibition on Bacillus subtilis ATCC 6633 for O=c1cc2nc(Cc3ccccc3)[nH]c(=S)n2[nH]1 .
Solution: 18

Exercise: Fetch value of zone of inhibition on Bacillus subtilis ATCC 6633 for O=C(O)c1cn(C2CC2)c2cc(N3CCNCC3)c(F)cc2c1=O [Ciprofloxacin, reference compound] .
Solution: 23

Exercise: Fetch value of zone of inhibition on Bacillus subtilis ATCC 6633 for O=C(Cc1ccccc1)NC(=S)NNC(=O)C(=Cc1cccs1)NC(=O)c1ccccc1 .
Solution: 35

Exercise: Fetch value of zone of inhibition on Bacillus subtilis ATCC 6633 for O=C(Cc1ccccc1)NC(=S)NN1C(=O)C(=Cc2ccccc2)N=C1c1ccccc1 .
Solution: 30

###

System: Staphylococcus aureus ATCC 29213
Assay procedure: MIC, modified agar well diffusion method
Type: cell-based
Measurement conditions: ATCC29213, S. aureus ATCC 29213, read-out: MIC (Mean ± SEM)
Param label: returns 1.0 when MIC < 5 µg/mL, returns 0.0 otherwise, including exact equality.

[[record]]
compound = "O=c1cc2nc(Cc3ccccc3)[nH]c(=S)n2[nH]1 [Compound 9]"
answer_label = 0.0

[[record]]
compound = "O=C(Cc1ccccc1)NC(=S)NNC(=O)C(=Cc1ccccc1)NC(=O)c1ccccc1 [Compound 7a]"
answer_label = 1.0

[[record]]
compound = "O=C(Cc1ccccc1)Nc1nnc(C(=Cc2cccs2)NC(=O)c2ccccc2)s1 [Compound 13]"
answer_label = 0.0


Exercise: Threshold test, MIC < 5 µg/mL: O=C(O)c1cn(C2CC2)c2cc(N3CCNCC3)c(F)cc2c1=O [Ciprofloxacin, reference compound]
Solution: 0.0

Exercise: Threshold test, MIC < 5 µg/mL: N#CCC(=O)NNC(=S)NC(=O)Cc1ccccc1 [Compound 8]
Solution: 1.0

Exercise: Threshold test, MIC < 5 µg/mL: O=C(Cc1ccccc1)NC(=S)N1NC(=O)C(=Cc2ccccc2)N=C1c1ccccc1 [Compound 12]
Solution: 0.0

Exercise: Threshold test, MIC < 5 µg/mL: O=C(Cc1ccccc1)NC(=S)NNC(=O)C(=Cc1cccs1)NC(=O)c1ccccc1 [Compound 7b]
Solution: 1.0

###

Tested system: E. coli DNA gyrase B (Escherichia coli)
Measured quantity: IC50 (nM)
# number only, unit nM dropped from output

Exercise: Read off the recorded IC50 for N#CCC(=O)NNC(=S)NC(=O)Cc1ccccc1
Solution: 330

###

Assay procedure: MTT assay for cytotoxic activity
Assay type: cell-based
Measurement conditions: African green monkey, Vero cells (normal kidney epithelial cell line), read-out: IC50 (Mean ± SEM), cytotoxic activity
Below, each entry is listed alongside its reported IC50.
# number only, unit µM dropped from output

[[record]]
molecule = "O=C(Cc1ccccc1)Nc1nnc(C(=Cc2cccs2)NC(=O)c2ccccc2)s1 [Compound 13]"
measured_quantity = "IC50"
endpoint_value = 84.1


Exercise: Read off the recorded IC50 for O=C(Cc1ccccc1)NC(=S)NN1C(=O)C(=Cc2ccccc2)N=C1c1ccccc1 [Compound 6]
Solution: 123

Exercise: Read off the recorded IC50 for O=C(Cc1ccccc1)NC(=S)N1NC(=O)C(=Cc2ccccc2)N=C1c1ccccc1 [Compound 12]
Solution: 79.2

###

System: Pseudomonas aeruginosa ATCC 27853
Assay procedure: MIC, modified agar well diffusion method
Format: cell-based
Measurement conditions: ATCC27853, P. aeruginosa ATCC 27853, read-out: MIC (Mean ± SEM)
Param label: returns 1 when MIC < 10 µg/mL, returns -1 otherwise, including exact equality.

Solved cases below.
[[record]]
compound = "O=c1cc2nc(Cc3ccccc3)[nH]c(=S)n2[nH]1 [Compound 9]"
answer_label = -1

[[record]]
compound = "O=C(O)c1cn(C2CC2)c2cc(N3CCNCC3)c(F)cc2c1=O [Ciprofloxacin, reference compound]"
answer_label = 1

[[record]]
compound = "O=C(Cc1ccccc1)NC(=S)N1NC(=O)C(=Cc2ccccc2)N=C1c1ccccc1 [Compound 12]"
answer_label = -1

[[record]]
compound = "O=C(Cc1ccccc1)NC(=S)NNC(=O)C(=Cc1cccs1)NC(=O)c1ccccc1 [Compound 7b]"
answer_label = 1


Exercise: Threshold test, MIC < 10 µg/mL: O=C(Cc1ccccc1)Nc1nnc(C(=Cc2cccs2)NC(=O)c2ccccc2)s1 [Compound 13]
Solution: -1
